Test system: Trichophyton rubrum (T. rubrum) ATCC10218
Experiment: Antifungal activity test against dermatophytes (MIC)
Assay type: cell-based
Details: 80% growth inhibiting concentration, RPMI1640/MOPS, 28° C., 4 days, WST8
REPORTED_PROPERTY: MIC (T. rubrum)

In [3]: df
Out[3]:
                                    compound  reported_property          reported
 0  Cc1cc(C)n(-c2ccc(C(F)(F)F)cc2O)n1 [compound 50]    MIC (T. rubrum)    B (4-16 μg/ml)
 1  Cc1cc(C)n(-c2ccc(C(=O)O)cc2O)n1 [compound 37]    MIC (T. rubrum)    B (4-16 μg/ml)
 2           Cc1ccnn1-c1ccccc1O [compound 8]    MIC (T. rubrum)     E (>64 μg/ml)
 3  CCc1ccc(-n2nc(C)cc2C)c(O)c1 [compound 52]    MIC (T. rubrum)      A (≤2 μg/ml)
 4  Cc1cc(C)n(-c2c(N)cccc2O)n1 [compound 36]    MIC (T. rubrum)  D (>32-64 μg/ml)
 5    Cc1nn(-c2ccccc2O)c(C)c1F [compound 53]    MIC (T. rubrum)    B (4-16 μg/ml)
 6  Cc1nn(-c2ccc(F)cc2O)c(C)c1C [compound 18]    MIC (T. rubrum)    B (4-16 μg/ml)
 7         Cc1ccn(-c2ccccc2O)n1 [compound 7]    MIC (T. rubrum)     E (>64 μg/ml)
 8  CNc1ccc(-n2nc(C)cc2C)c(O)c1 [compound 48]    MIC (T. rubrum)    B (4-16 μg/ml)
 9  Cc1cc(C)n(-c2c(C)cccc2O)n1 [compound 46]    MIC (T. rubrum)  D (>32-64 μg/ml)
10  CC(C)(C)c1cc(N)n(-c2ccccc2O)n1 [compound 10]    MIC (T. rubrum)     E (>64 μg/ml)
11  Cc1cc(C)n(-c2cccc(Cl)c2O)n1 [compound 12]    MIC (T. rubrum)     E (>64 μg/ml)
12  Oc1ccccc1-n1nc(C(F)(F)F)cc1C(F)(F)F [compound 6]    MIC (T. rubrum)     E (>64 μg/ml)
13  CC(=O)Oc1ccc(-n2nc(C)c(Cl)c2C)c(O)c1 [compound 58]    MIC (T. rubrum)      A (≤2 μg/ml)
14  Cc1nn(-c2ccc(N)cc2O)c(C)c1C [compound 34]    MIC (T. rubrum)    B (4-16 μg/ml)
